Here the recorded Population Fragmented Nuclei (%) is given for each entry.
Tested on: Fibroblast
Experimental Details: Multiplex assay against human fibroblast
Type: toxicity, cell-based
Study Conditions: 12 h, 1 µM, compound concentration 1 uM, replicate 2
Kindly answer with a numeric value in %, unit omitted.

Worked cases, Population Fragmented Nuclei (%) given:
Cl.Cn1c2c(c3ccc(Cl)c(Cl)c31)C(C#N)C1(CCNCC1)NC2=O (stereo unspecified); 59
Cc1c(Nc2ccc(S(=O)(=O)N3CCN(C)CC3)cc2F)nc2ccc(Nc3cnn(C4CC4)c3)cn2c1=O; 62
CC[C@@H]1C(=O)N(C)c2cnc(Nc3ccc(C(=O)NC4CCN(C)CC4)cc3OC)nc2N1C1CCCC1; 60
Cc1c(Nc2ccc(S(=O)(=O)N3CCN(C)CC3)cc2F)nc2ccc(-c3cnn(C4CC4)c3)cn2c1=O; 49
Cc1c(P(=S)(c2ccccc2)c2ccccc2)n2ccccc2[n+]1C/C=C/c1ccccc1.[Br-]; 50

Problem: What value of Population Fragmented Nuclei (%) has been recorded for this entry: Cc1ccc(NC(=O)Nc2cc(C(F)(F)F)ccc2F)cc1Nc1ccc2c(c1)NC(=O)/C2=C\c1ccc[nH]1
Result: 60

Problem: What value of Population Fragmented Nuclei (%) has been recorded for this entry: N#Cc1cccc(C(=O)Nc2cc(-c3ccccc3)nn2-c2ccccc2)c1
Result: 5

Problem: What value of Population Fragmented Nuclei (%) has been recorded for this entry: CCOc1ccn(-c2ccc(F)cc2)c(=O)c1C(=O)Nc1ccc(Oc2ccnc(N)c2Cl)c(F)c1
Result: 56

Problem: What value of Population Fragmented Nuclei (%) has been recorded for this entry: CN1C(=O)[C@@H](NC(=O)c2cc3ccccc3[nH]2)N=C(c2ccccc2)c2ccccc21 [DEVAZEPIDE]
Result: 4

Problem: What value of Population Fragmented Nuclei (%) has been recorded for this entry: CC(C)[C@H](CO)Nc1nc(Nc2cccc(Cl)c2)c2ncn(C(C)C)c2n1
Result: 8

Problem: What value of Population Fragmented Nuclei (%) has been recorded for this entry: CC(Cc1ccc(O)c(O)c1)C(C)Cc1ccc(O)c(O)c1 (stereo unspecified) [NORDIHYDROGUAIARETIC ACID]
Result: 3
